FYI, the data here is from patent US20080267971A1.

test.system: T1, human Angiopoietin-2 (human, UniProt O15123 19-496)
T1 construct: Mostly bought recombinant protein (R&D Systems 623-AM/CF, 623-AN; biotinylated BT623) or supernatant of transfected 293F cells; also called Ang-2; rhAng-2
T1 sequence: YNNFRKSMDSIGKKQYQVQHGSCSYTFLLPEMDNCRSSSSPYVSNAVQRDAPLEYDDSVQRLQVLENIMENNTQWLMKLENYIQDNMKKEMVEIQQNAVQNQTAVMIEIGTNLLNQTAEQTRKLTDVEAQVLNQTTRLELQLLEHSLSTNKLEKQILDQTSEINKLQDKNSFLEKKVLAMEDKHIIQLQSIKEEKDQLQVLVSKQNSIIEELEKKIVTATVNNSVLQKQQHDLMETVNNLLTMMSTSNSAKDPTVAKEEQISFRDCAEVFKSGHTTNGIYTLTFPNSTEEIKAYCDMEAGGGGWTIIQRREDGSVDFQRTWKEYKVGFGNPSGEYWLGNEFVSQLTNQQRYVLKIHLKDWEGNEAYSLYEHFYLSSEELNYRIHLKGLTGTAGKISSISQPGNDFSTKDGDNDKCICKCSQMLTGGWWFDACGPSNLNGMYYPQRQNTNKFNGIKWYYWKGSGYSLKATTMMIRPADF
method.notes: Biacore, mAb captured
reported.metric: kon (M⁻¹ s⁻¹)
Give a bare numeral; the unit M⁻¹ s⁻¹ is implied.

Examples with answers:
[
  {
    "binder": "mAb 5.39.1 (antibody, V domains shown, Human hybridoma IgG (XenoMouse); also called x5.39) VH: QVQLVQSGAEVTKPGASVKVSCKASGYTFTAYHMYWVRQAPGQGLEWMGWINPNSGGTNYAQKFQGRVTMTRDTSISTAYMELSRLRSDDSPVYYCARDQGIAAAGPFDYWGQGTLVTVSS VL: EIVMTQSPATLSVSPGDRATLSCRASQSVSSNFAWYQQKPGQAPRLLIYGSSTRATGIPARFSGSGSGTEFTLTISSLQSEDFAVYYCQQYHYWWTFGQGTKVEFKR",
    "kon (M⁻¹ s⁻¹)": 230000
  },
  {
    "binder": "mAb 3.31.2 (antibody, V domains shown, Human hybridoma IgG (XenoMouse); also called x3.31) VH: EVQLVESGGGLVQPGGSLRLSCAASGFTFSSYWMSWVRQAPGKGLEWVANIKQDGSDKYYVDSVKGRFTISRDNAKNSLYLRMNSLRAEDTAVFYCARDMGSGWFDYWGQGTLVTVSS VL: EVVMTQSPATLSVSPGERATLSCRASQSVGSNLAWYQQKPGQAPRLLIYGASTRATGIPARFSGSGSGTEFTLTISSLQSEDFAVYCCQQYNHWWTFGQGTKVEIKR",
    "kon (M⁻¹ s⁻¹)": 190000
  }
]

For the next question, use this binder.
IN: I'd like to know its kon. The binder in question is mAb 5.35.1 (antibody, V domains shown, Human hybridoma IgG (XenoMouse); also called x5.35) VH: EVQLVESGGGVVRPGGSLRLSCTTSGFTFDDYGMSWVRQAPGKGLEWVSGINWNGGSTVYADSVKGRFTISRDSAKNSLYLQMNSLRAEDTALYHCARNKQWLWYFDLWGRGTLVTVSS VL: EIVMTQSPATLSVSPGERATLSCRASQSVSSNLAWYQQKPGQAPRLLIYGASTRATGIPARFSGSGSGTEFTLTISSLQSEDFAVYYCEQYNNWPLTFGGGTKVEIKR
OUT: 340000
